system: T. gondii RH strain (RH-Tub-eYFP) tachyzoites; test: microbe, parasite or virus in culture; format: cell-based, Toxoplasma gondii; conditions: Toxoplasma gondii, 72 h, T. gondii, 72 h, screen at 2 μg/mL, replicate 1; read-out: Tg_72h_%Growth_Rep1
Listed here: items and their measured percent parasite growth at 2 µg/mL.
Numeric answer only, unit % assumed.

Answered examples (3):
>>> reportedmeasurement("CC=C1CN(C)C2Cc3c([nH]c4ccccc34)C(c3cc4[nH]c5c(c4cc3OC)CCN3CC4CC(CC)C3C5(C(=O)OC)C4)CC1C2C(=O)OC (stereo not shown) [Voacamine]")
97
>>> reportedmeasurement("O=C1NC(c2c[nH]c3ccc(O)cc23)=C/C1=C1\\C(=O)Nc2ccccc21 [Violacein]")
85.9
>>> reportedmeasurement("Nc1ncnc2c1ccn2[C@@H]1O[C@H](CO)[C@@H](O)[C@H]1O [Tubercidin]")
3.92

Please look at the following compound next.
percent parasite growth at 2 µg/mL for O=C(N[C@H](CO)[C@H](O)c1ccc([N+](=O)[O-])cc1)C(Cl)Cl [Chloramphenicol] ? 86.7

====

tested on: P. falciparum 3D7 parasites; assay: P. falciparum growth inhibition assay, 1-cycle (72 h treatment), SYBR DNA staining (library screen at 2 μg/mL and dose-response); assay type: cell-based, Plasmodium falciparum; conditions: Plasmodium falciparum, 3D7; P. falciparum, 72 h, screen at 2 μg/mL, replicate 2; read-out: Pf_72h_%Growth_Rep2
observedProperty: activity at 2 µg/mL
Answer format: value, then unit.

Answered examples (5):
>>> reportedmeasurement("COc1c(CC(C)O)c2c3c(CC(C)O)c(OC)c(=O)c4c(O)cc5c(c6c(cc(O)c(c1=O)c62)OCO5)c43 (stereo not shown)")
"9.49%"
>>> reportedmeasurement("CC[C@H](C)[C@@H](OC(C)=O)[C@@H](C)C1=CC(=O)C2=C(O[C@]3(C)CC[C@H]4O[C@@H](C(C)(C)O)CC[C@]4(C)[C@H]3[C@@H]2O)C1=O")
"80.1%"
>>> reportedmeasurement("CC[C@H]1OC(=O)[C@H](C)C(=O)[C@H](C)[C@@H](O[C@@H]2O[C@H](C)C[C@H](N(C)C)[C@H]2O)[C@](C)(OC)C[C@@H](C)C(=O)[C@H](C)[C@H]2N(CCCCn3cnc(-c4cccnc4)c3)C(=O)O[C@]12C")
"40.6%"
>>> reportedmeasurement("C=CC(C)(C)[C@@]12C[C@H]3C(=O)N[C@H](CC(C)C)C(=O)N3[C@H]1N(C(C)=O)c1ccccc12")
"83.7%"
>>> reportedmeasurement("CCCCCCCCCCCCCCCC(=O)OC[C@@H](NC(=O)C(Cl)Cl)[C@H](O)c1ccc([N+](=O)[O-])cc1 [Chloramphenicol palmitate]")
"81.8%"

activity at 2 µg/mL for O=C(O)[C@H]1/C(=C/CO)O[C@@H]2CC(=O)N21 [Clavulanate potassium] ? 88.1%

O=C(O)CCC(=O)OC[C@@H](NC(=O)C(Cl)Cl)[C@H](O)c1ccc([N+](=O)[O-])cc1 [Chloramphenicol succinate] , same question. 86.6%

CN(C)c1cc(NC(=O)CNC(C)(C)C)c(O)c2c1C[C@H]1C[C@H]3[C@H](N(C)C)C(O)=C(C(N)=O)C(=O)[C@@]3(O)C(O)=C1C2=O , same question. 87.6%

C=C(CC[C@]12O[C@H](C(=O)O)[C@@](O)(C(=O)O)[C@](C(=O)O)(O1)[C@H](OC(=O)/C=C/[C@@H](C)C[C@@H](C)CC)[C@H]2O)[C@@H](OC(C)=O)[C@H](C)Cc1ccccc1 , same question. 117%

C[C@H]1[C@H](C)CC[C@]2(C(=O)O)CC[C@]3(C)C(=CC[C@@H]4[C@@]5(C)CC[C@H](O)C(C)(C)[C@@H]5CC[C@]43C)[C@H]12 , same question. 84%

O=c1c(-c2ccc(O)cc2)coc2cc(O)ccc12 , same question. 88.8%

C/C=C/C/C=C/CCC(=O)[C@H]1O[C@H]1C(N)=O , same question. 80.4%

COc1cc(-c2oc3c(OC)c(OC)cc(O)c3c(=O)c2OC)ccc1O , same question. 81%

====

system: P. falciparum 3D7 parasites; experiment: P. falciparum growth inhibition assay, 2-cycle (120 h treatment), delayed-death screen and dose-response; format: cell-based, Plasmodium falciparum; conditions: Plasmodium falciparum, 3D7; P. falciparum, 120 h, parasite screen 2 μg/mL, % growth, replicate 2; read-out: Pf_120h_%Growth_Rep2
observedProperty: activity at 2 µg/mL (%)
Numeric answer only, unit % assumed.

>>> reportedmeasurement("O=C1NCc2nc3ccccc3c(=O)n2-c2ccccc21")
96.5
>>> reportedmeasurement("CC[C@H]1OC(=O)[C@H](C)[C@@H](O[C@H]2C[C@@](C)(OC)[C@@H](O)[C@H](C)O2)[C@H](C)[C@@H](O[C@@H]2O[C@H](C)C[C@H](N(C)C)[C@H]2O)[C@](C)(O)C[C@@H](C)/C(=N\\OCOCCOC)[C@H](C)[C@@H](O)[C@]1(C)O [Roxithromycin, reference compound]")
-1.36

Please look at the following compound next.
activity at 2 µg/mL for C=CC(C)(C)[C@@]12C[C@H]3C(=O)N/C(=C/c4c[nH]cn4)C(=O)N3[C@@H]1Nc1ccccc12 ? 98.8

====

Listed here: items and their measured activity at 2 µg/mL.
system: P. falciparum 3D7 parasites; experiment: P. falciparum growth inhibition assay, 1-cycle (72 h treatment), SYBR DNA staining (library screen at 2 μg/mL and dose-response); type: cell-based, Plasmodium falciparum; conditions: Plasmodium falciparum, 3D7; P. falciparum, 72 h, parasite screen 2 μg/mL, % growth, replicate 1; read-out: Pf_72h_%Growth_Rep1
Numeric answer only, unit % assumed.

>>> reportedmeasurement("C/C(=C\\C(=O)OCCCCCCCCC(=O)O)C[C@@H]1OC[C@H](C[C@@H]2O[C@H]2[C@@H](C)[C@H](C)O)[C@@H](O)[C@H]1O")
29.1
>>> reportedmeasurement("COC(=O)c1cc(O)cc(OC)c1C(=O)c1c(O)cc(C)cc1O")
88.9
>>> reportedmeasurement("CN(C)[C@@H]1C(O)=C(C(=O)NCN2CCCC2)C(=O)[C@@]2(O)C(O)=C3C(=O)c4c(O)cccc4[C@@](C)(O)[C@H]3C[C@@H]12")
87.6

Find the measured activity at 2 µg/mL: item Cc1cc(O)c2c(c1)C(=O)c1c(c(O)cc(O)c1-c1c(O)cc(O)c3c1C(=O)c1cc(C)cc(O)c1C3=O)C2=O , target or system P. falciparum 3D7 parasites. 80.4

====

test system: P. falciparum 3D7 parasites; test: P. falciparum growth inhibition assay, 2-cycle (120 h treatment), delayed-death screen and dose-response; format: cell-based, Plasmodium falciparum; settings: P. falciparum 3D7, 120 h, parasite screen at 2 μg/mL, % growth, replicate 2
Where a SMILES comes first, the peptide text is derived from it. Bridges are numbered along the chain shown (N, C = ends). The star is where a group is joined. X2 = CCCCCCCCCCCC(O)CC(=O)*
observedProperty: Pf_120h_%Growth_Rep2 (%)
Numeric answer only, unit % assumed.

Answered examples (3):
>>> reportedmeasurement("C[C@H]1C(=O)O[C@@H]2CCN3CC=C(COC(=O)[C@](C)(O)[C@]1(C)O)[C@H]23")
104.58
>>> reportedmeasurement("CC[C@H](C)C(=O)O[C@H]1CCC=C2C=C[C@H](C)[C@H](CC[C@@H]3C[C@@H](O)CC(=O)O3)[C@H]21")
112.58
>>> reportedmeasurement("COc1cccc2oc3c4c(cc(OC)c3c(=O)c12)O[C@H]1OC=C[C@@H]41")
84.03

Pf_120h_%Growth_Rep2 for C=C[C@]1(C)C[C@@H](O)[C@]2(C)[C@H](C)CC[C@]3(CCC(=O)[C@H]32)[C@@H](C)[C@@H]1O ? 105.61

COc1oc(C2C/C(=C/C(C)=C/C(C)=C/C(C)=C/c3ccc([N+](=O)[O-])cc3)CO2)c(C)c(=O)c1C (centres unmarked) , same question. 18.76

CC=C(C)C(O)C(C)C=C(C)C=CCC(C)=CCc1nc(OC)c(OC)c(O)c1C (centres unmarked) , same question. 102.66

CO[C@@]12[C@H](COC(N)=O)C3=C(C(=O)C(C)=C(N)C3=O)N1C[C@@H]1N[C@@H]12 , same question. 100.91

CCCCCCCCCCCC(O)CC(=O)NC(CC(C)C)C(=O)NC(CCC(=O)O)C(=O)NC1C(=O)NC(C(C)CC)C(=O)NC(CC(C)C)C(=O)NC(CO)C(=O)NC(CC(C)C)C(=O)NC(CC(C)C)C(=O)NC(CO)C(=O)NC(C(C)C)C(=O)OC1C (centres unmarked) [BIA-O1430] (X2-LETILSLLSV; ester 3-C; configuration not given here) , same question. 72.71
